# Test system: myasthenogenic antibody mAB 198
# assay-overview: Peptide microarray mimotope screen, binding of mAB 198 to linear and cyclic peptides (fluorescence readout)
# Design: species or system rat
# conditions: linear mimotopes; binding of mAB 198, relative fluorescent signal after normalization against background
Decide using relative signal [%] alone. Strictly below 8%: Fulfilled. Equal to or above 8%: Not fulfilled.

| substance | class |
| --- | --- |
| 70 (YNLKYNP) [compound 70] | Not fulfilled |
| 98 (VDCNLKYNP) [compound 98] | Fulfilled |
| 99 (ALRWNPADY) [compound 99] | Fulfilled |
| 48 (CNLKFNP) [compound 48] | Not fulfilled |
| 75 (NPDDYGH) [compound 75] | Fulfilled |
| 62 (GSLRFNPAD) [compound 62] | Not fulfilled |
| 1 (LRRNPAD) [compound 1] | Not fulfilled |
| 5 (LRGNPAD) [compound 5] | Not fulfilled |
| 68 (RPNPADYGG) [compound 68] | Not fulfilled |
| 55 (NPADYDG) [compound 55] | Not fulfilled |
| 16 (GSLRFNP) [compound 16] | Not fulfilled |
| 58 (RPNPADY) [compound 58] | Not fulfilled |
| 79 (HWNPADY) [compound 79] | Fulfilled |
| 46 (RLRFNPADY) [compound 46] | Not fulfilled |
| 13 (LRLNPAD) [compound 13] | Not fulfilled |
| 96 (QWVDCNLKFNP) [compound 96] | Fulfilled |
| 100 (NPADYGV) [compound 100] | Fulfilled |
| 54 (SLRWNPADYHG) [compound 54] | Not fulfilled |
| 33 (NPADYGD) [compound 33] | Not fulfilled |
| 94 (RLRYNPADY) [compound 94] | Fulfilled |
| 82 (GGGSLRYNP) [compound 82] | Fulfilled |
